Cited source for all entries: patent US10669637B2

Experiment: Copper corrosion rate by linear polarization resistance
Conditions: copper coupons, 5 ppm inhibitor, pH 7.0, 45° C., absence of bleach, average over 20 to 24 hour period
Description: In addition, the corrosion rate of copper in the presence of benzimidazole, tolyltriazole, imidazole, pyrimidine, 6,6-dimethyladenine, and 6-methylpurine was determined using linear polarization resistance measurements. […] The Rp in the absence and presence of bleach was collected and analyzed, and the average corrosion rate was calculated and recorded in Table 1. Corrosion rates were calculated in mils per year (mpy).
Label satisfied when No FRC Corrosion Rate (mpy) is at or above 0.7 mpy; otherwise label not satisfied.

[
  {
    "smilesEntry": "c1ccc2[nH]cnc2c1",
    "labelClass": "not satisfied"
  },
  {
    "smilesEntry": "Nc1ncnc2nc[nH]c12",
    "labelClass": "not satisfied"
  },
  {
    "smilesEntry": "c1cncnc1",
    "labelClass": "satisfied"
  },
  {
    "smilesEntry": "Cc1ncnc2nc[nH]c12",
    "labelClass": "satisfied"
  },
  {
    "smilesEntry": "Oc1ncnc2nc[nH]c12",
    "labelClass": "not satisfied"
  },
  {
    "smilesEntry": "Clc1ncnc2nc[nH]c12",
    "labelClass": "not satisfied"
  }
]
